EXPERIMENTAL_PROTOCOL: chemical genetic growth profiling, strain panel (AID 1159580);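 note: tested at 20 µM; growth read once vehicle control cultures reached saturation at 30 °C; 1 = growth at the plate median or of vehicle wells; lower values mean less growth of the strain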
TEST_SETTINGS: S. cerevisiae deletion strains, growth OD, locus YJL166W, strain qcr8, hits give low values
About 2,000 (36%) of roughly 5,500 compounds were called active. Inconclusive results (about 18%) are left out. This is one part of the list.
QUANTITY_MEASURED: normalized growth
Please give only the number in your answer, with no unit.

Reference set (10 entries):
{"columns": ["MOLECULE", "normalized growth"],
 "data": [
  ["CC(C)N1C(=O)c2ccccc2NS1(=O)=O", 0.987],
  ["CNC(=O)Oc1ccccc1OC(C)C", 0.994],
  ["CC(=O)Oc1c(C)c(C)c2c(c1C)CCC(C)(CCCC(C)CCCC(C)CCCC(C)C)O2 (configuration not stated)", 0.989],
  ["CC1CC(OC(=O)c2ccccc2O)CC(C)(C)C1 (configuration not stated)", 0.943],
  ["COCC1=C(C(=O)OC(C)OC(=O)OC(C)C)N2C(=O)[C@@H](NC(=O)/C(=N\\OC)c3csc(N)n3)[C@H]2SC1 (some centres not stated)", 0.998],
  ["CC(C)[C@@H]1CC[C@@H](C)C[C@H]1OC(=O)c1ccccc1", 0.984],
  ["CC12CCC(OC(=O)c3ccccc3)CC1CCc1ccccc12 (configuration not stated)", 1],
  ["CC(=CC1CCC(C)C2CCC(C)=C12)C(=O)O (configuration not stated)", 0.917],
  ["O=C1C=CC(=O)c2ccccc21", 0.0677],
  ["CCCCCC/C=C\\CCCCCCCc1cccc(O)c1C(=O)O", 0.976]
]}

**Q:** What value of measured normalized growth is listed for `CON` ?
**A:** 0.981

**Q:** What value of measured normalized growth is listed for CN1CCCCC1c1ccc(-c2cccnc2)nc1 (configuration not stated) ?
**A:** 0.983
